This collection of values is drawn from ChEMBL document CHEMBL4513216.

What INHIBITION was measured for each of the following?
system: Plasmodium falciparum; experiment: Screen against P. falciparum Asexual Blood Stage (ABS), at 5uM; type: functional, Dd2; settings: tested at 5 uM
Out of some 65,000 compounds screened, about 2,100 (3.2%) showed an effect of 50% or more. The median lay at about -52%. This excerpt belongs to a sample that is enriched for strong results.
One number for each entry, in %.

Worked examples follow.
| molecule | INHIBITION [%] |
| --- | --- |
| CN(CC1CC1)c1ccc2ccc(C(=O)NC3CCCCC3)cn12 | 54.6 |
| Cn1c(=O)c2c(n3ncnc13)NC(=O)CC2c1ccc(F)cc1 (stereo not given) | -53.6 |
| CSC(C)C(=O)N(C)CCCc1cc(-c2ccccc2)no1 (stereo not given) | -25.3 |
| Cc1ncc(CN(C)Cc2nc3cc(Cl)ccc3n2C)s1 | -54.3 |
| CCN1CCC(CNC(=O)c2cc(Cl)c[nH]2)CC1 | -108 |
| O=C(c1cccnc1SC/C=C/c1ccccc1)N1CC[C@H](O)C1 | -66.8 |
| CCN(c1ccc(C(=O)NCc2cc[nH]n2)cc1)C(C)C | 60.1 |
| CNC(=O)C1CCN(C(=O)CCn2cccn2)CC1 | -104 |
| COC1CCN(C(=O)CCn2cccn2)CC1 | 53.1 |
| CCN(CC)c1ccc2ccc(C(=O)NC3CC3)cn12 | -34.9 |

Quick request: INHIBITION for each listed item, please.
1. CC1(C(=O)NCc2cccc(C(F)(F)F)c2)CCOCC1
2. Cc1noc(C)c1CN1CCO[C@H]2CN(Cc3ccc(F)cc3)C[C@H]21
3. O=C(NCC1CCN(CCc2ccccc2)C1)c1cc(Cl)c[nH]1 (stereo not given)
4. CC(C)c1ccc(O)c(C(=O)NCc2cc[nH]n2)c1
5. CC(=O)N1CC2C[C@]2(NC(=O)c2ccco2)C1 (stereo not given in full)
6. CCc1noc(C2CCCCN2C(=O)c2cccs2)n1 (stereo not given)

a:
1: -26.5; 2: 55.3; 3: 65.1; 4: -97.2; 5: 50.3; 6: -105

Quick request: INHIBITION for each listed item, please.
1. COCCN1CCC(CNC(=O)c2cc(Cl)c[nH]2)CC1
2. FC(F)(F)c1cccc(C2(CNCc3ccncc3)CCOCC2)c1
3. O=C(c1cccnc1SC/C=C/c1ccccc1)N1CCOCC(O)C1 (stereo not given)
4. CCc1noc(C2CCCCN2C(=O)c2nnc3ccccc3n2)n1 (stereo not given)
5. CCC(=O)N1CCN(C(=O)CCn2cccn2)CC1
6. Cc1cnc(CCN(C)C(=O)c2cccc(C)c2O)s1
7. CN(C)CCNC(=O)c1cc(-c2cnc(N3CCCC3)nc2)cn1C

a:
[-2.76, 51, 55.5, 65.5, -114, -152, -123]

Quick request: INHIBITION for each listed item, please.
1. O=C(CCn1cccn1)N1CCN(CC(F)F)CC1
2. CN(CC1CC1)c1ccc2ccc(C(=O)NCCc3ccccc3)cn12

a:
[-177, -46.3]

* * *

What INHIBITION was measured for each of the following?
tested on: Plasmodium falciparum; experiment: Screen against P. falciparum Asexual Blood Stage (ABS), at 5uM; format: functional, Dd2; conditions: tested at 5 uM
About 2,100 (3.2%) of roughly 65,000 compounds showed an effect of 50% or more. The median lay at about -52%. This is one part of a sample in which strong results are shown more often than they occur.
Give bare numbers, in %.

| molecule | quantity unit | INHIBITION |
| --- | --- | --- |
| CC(=O)N1CCC2(CCN(Cc3cccc(F)c3)CC2)CC1 | % | -58.8 |
| Cn1ccc(C(=O)NC2CCC23CCN(Cc2ccc(F)cc2)CC3)c1 (stereo not drawn) | % | 39.9 |
| CNC(=O)Cc1ccccc1NC(=O)N[C@H]1c2ccccc2C[C@H]1O | % | -69.7 |
| Cc1cc(C)n(CC(C)NC(=O)NCc2c(C)cc(C)[nH]c2=O)n1 (stereo not drawn) | % | -51.8 |
| Cc1ccc(CN2CCC3(CCC3NC(=O)c3ccn(C)c3)CC2)s1 (stereo not drawn) | % | 55.9 |
| Cc1noc(C)c1CN1CCC2(CCN(Cc3cccc(F)c3)CC2)C1 | % | 67.9 |
| O=C(NC[C@H]1OC[C@@H](N(CC2CC2)CC2CC2)[C@@H]1O)Nc1ccccc1 | % | 64.8 |
| Cc1ccc(CN2CCC3(CC2)CN(c2ccccc2)C(=O)CO3)o1 | % | -69 |

Quick request: INHIBITION for each listed item, please.
1. CCc1cc(N[C@@H]2C[C@@H]3CC[C@H]2C3)n2nccc2n1
2. O=C(Cc1ccco1)N1CCC2(CCOCC2COCC2CC2)CC1 (stereo not drawn)
3. COC(=O)c1cc(OCC2CCC2)cc(C(=O)N[C@@H](C)CO)c1
4. O=C(N1CCCC1)N1CCC[C@]2(C[C@@H](OCc3ccncc3)CO2)C1
5. CC(C)N(CCNc1nc(C2CCCC2)nc2c1cnn2C)C(C)C

a:
-125
-30.9
-90
-71.6
58.6
